target: BRAF V600E (Homo sapiens, UniProt P15056, V600E); construct: purchased Invitrogen; experiment: Z'-LYTE kinase inhibition assay against BRAF V600E; type: biochemical; conditions: % inhibition at 1 μM, Z'-LYTE method
Sequence (P15056 whole entry V600E): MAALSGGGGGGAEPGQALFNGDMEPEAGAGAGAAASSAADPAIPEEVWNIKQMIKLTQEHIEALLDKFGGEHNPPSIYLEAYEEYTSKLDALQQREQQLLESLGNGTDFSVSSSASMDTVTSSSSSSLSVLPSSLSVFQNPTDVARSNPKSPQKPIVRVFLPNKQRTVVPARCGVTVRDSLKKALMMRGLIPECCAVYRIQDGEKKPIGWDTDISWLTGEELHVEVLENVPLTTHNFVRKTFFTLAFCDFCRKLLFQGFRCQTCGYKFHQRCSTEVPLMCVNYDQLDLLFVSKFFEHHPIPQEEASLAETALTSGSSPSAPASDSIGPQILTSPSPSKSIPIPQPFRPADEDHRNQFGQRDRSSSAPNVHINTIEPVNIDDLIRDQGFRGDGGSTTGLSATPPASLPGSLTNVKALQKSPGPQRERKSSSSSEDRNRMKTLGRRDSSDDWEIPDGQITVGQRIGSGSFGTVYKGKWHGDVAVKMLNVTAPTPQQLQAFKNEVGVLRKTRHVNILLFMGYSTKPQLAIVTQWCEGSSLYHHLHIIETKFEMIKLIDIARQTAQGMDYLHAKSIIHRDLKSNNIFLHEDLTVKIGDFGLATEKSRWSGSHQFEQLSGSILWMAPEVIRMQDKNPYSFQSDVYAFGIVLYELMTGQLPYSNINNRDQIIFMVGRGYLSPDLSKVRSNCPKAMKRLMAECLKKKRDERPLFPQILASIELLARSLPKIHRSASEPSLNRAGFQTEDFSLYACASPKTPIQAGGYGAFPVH
readout-label: inhibition at 1 µM

Request: Give the measured inhibition at 1 µM of O=C(Nc1ccc(F)cc1)Nc1ccc(C(=O)c2ccc3ncc(N4CCOCC4)nc3c2)c(F)c1 .
Response: 70 to 89%

Request: Now the same for O=C(Nc1ccc(C(=O)c2ccc3ncc(N4CCOCC4)nc3c2)cc1)Nc1ccc(Cl)c(C(F)(F)F)c1
Response: < 70%

Request: Now the same for Cn1ccc(NC(=O)Nc2ccc(C(=O)c3ccc4ncc(N5CCNCC5)nc4c3)c(F)c2)n1
Response: 70 to 89%

Request: Now the same for O=C(Nc1ccc(F)cc1)Nc1ccc(C(=O)c2ccc3ncc(N4CCOCC4)nc3c2)cc1
Response: < 70%

Request: Now the same for O=C(Nc1ccc(C(=O)c2ccc3ncc(N4CCOCC4)nc3c2)cc1)Nc1cccc(Cl)c1
Response: < 70%

Request: Now the same for Cn1cc(NC(=O)Nc2ccc(C(=O)c3ccc4ncc(N5CCNCC5)nc4c3)c(F)c2)cn1
Response: 70 to 89%

Request: Now the same for N#Cc1cnc2ccc(C(=O)c3ccc(NC(=O)Nc4cccc(C(F)(F)F)c4)cc3F)cc2n1
Response: < 70%

Request: Now the same for O=C(Nc1ccc(F)cc1)Nc1ccc(C(=O)c2ccc3ncc(N4CCNCC4)nc3c2)cc1
Response: > 89%

Request: Now the same for O=C(Nc1ccc(C(=O)c2ccc3ncc(C4CCNCC4)nc3c2)cc1)Nc1ccc(F)c(C(F)(F)F)c1
Response: 70 to 89%

Request: Now the same for O=C(Nc1ccc(C(=O)c2ccc3ncc(N4CCNCC4)nc3c2)cc1)Nc1cccc(F)c1
Response: > 89%

====

test system: A375 cells; assay: Inhibition of cancer cell growth, MTT or MTS assay, A375; type: cell-based; conditions: Homo sapiens, A-375, 72 h incubation
Entries and their measured IC50 follow.

Below are worked cases with known answers.
[[record]]
given_smiles = "O=C(Nc1ccc(C(=O)c2ccc3ncc(C4CCNCC4)nc3c2)cc1)Nc1ccc(F)c(C(F)(F)F)c1"
target_system = "A375 cells"
observed_result = "1000 to 5000 nM"

[[record]]
given_smiles = "O=C(Nc1ccc(C(=O)c2ccc3ncc(N4CCNCC4)nc3c2)cc1)Nc1ccc(F)c(C(F)(F)F)c1"
target_system = "A375 cells"
observed_result = "< 1000 nM"

[[record]]
given_smiles = "O=C(Nc1ccc(C(=O)c2ccc3ncc(N4CCNCC4)nc3c2)c(F)c1)c1cccc(C(F)(F)F)c1"
target_system = "A375 cells"
observed_result = "1000 to 5000 nM"

[[record]]
given_smiles = "O=C(Nc1ccc(C(=O)c2ccc3ncc(N4CCOCC4)nc3c2)cc1)Nc1ccc(F)c(C(F)(F)F)c1"
target_system = "A375 cells"
observed_result = "1000 to 5000 nM"

[[record]]
given_smiles = "O=C(Nc1ccc(C(=O)c2ccc3ncc(N4CCNCC4)nc3c2)c(F)c1)c1ccc(Cl)c(C(F)(F)F)c1"
target_system = "A375 cells"
observed_result = "< 1000 nM"

[[record]]
given_smiles = "O=C(Nc1ccc(C(=O)c2ccc3ncc(N4CCNCC4)nc3c2)cc1)Nc1cccc(C(F)(F)F)c1"
target_system = "A375 cells"
observed_result = "< 1000 nM"


Request: Give the measured IC50 of O=C(Nc1ccc(C(=O)c2ccc3ncc(C4CCNCC4)nc3c2)cc1)Nc1cccc(C(F)(F)F)c1 .
Response: > 5000 nM
